Target: T1, TcdA-GTD (TcdA1-542) (Clostridioides difficile strain VPI10463, UniProt P16154 1-542)
T1 construct: range 1-542; also called TcdA glucosyltransferase domain
T1 sequence (P16154 1-542 limits assumed): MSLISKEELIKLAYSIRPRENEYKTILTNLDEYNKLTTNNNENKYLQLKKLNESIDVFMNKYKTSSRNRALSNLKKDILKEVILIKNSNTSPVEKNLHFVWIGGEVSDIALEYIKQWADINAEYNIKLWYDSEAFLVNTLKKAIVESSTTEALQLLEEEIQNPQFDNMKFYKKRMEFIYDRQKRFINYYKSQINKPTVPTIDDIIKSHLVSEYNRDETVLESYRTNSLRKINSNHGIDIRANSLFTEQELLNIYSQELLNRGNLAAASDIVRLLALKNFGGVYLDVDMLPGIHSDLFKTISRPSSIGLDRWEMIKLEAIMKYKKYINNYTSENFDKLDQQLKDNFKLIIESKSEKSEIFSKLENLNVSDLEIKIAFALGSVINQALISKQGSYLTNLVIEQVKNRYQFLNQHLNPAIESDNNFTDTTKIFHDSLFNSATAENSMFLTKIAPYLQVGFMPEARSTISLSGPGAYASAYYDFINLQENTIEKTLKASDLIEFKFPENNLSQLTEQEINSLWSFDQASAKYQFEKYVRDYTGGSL
Assay: ELISA-like screen of clone lysates on isolated domains
observable: binding result

binder: A2C2 (VHH) VHH: QVQLQESGGGLVQTGGSLRLSCTASGRTFSRYAMGWFRQASGKEREFVAAISYSGGTTYYSDSVKGRFTISRDNAKSTVSLQMNSLKPEDTAVYYCAAGLFRGDLTRFTLDEYDYRGQGTQVTVSS
testResult: no binding
//
binder: A1C4 (VHH) VHH: QVQLQESGGGLVQPGGSLRLSCAASGRSFSINTMGWYRQAPGNKRDMVATITTGGNTNYADSVKGRFTISRDNAKNTVYLQMNSLKPEDTAVYYCRTVVVTPYPDEFEYDYWGQGTQVTVSS
testResult: no binding
//
binder: A2H9 (VHH) VHH: QVQLQESGGGLVQAGGSLRLSCAASGRASSTYVMAWFRQAPGKEREFVAADTWGGAGTYYAPSVKGRFTISRDNAKNMLYLQMNSLKPEDTAAYYCAAGQGRSVTLFQPSTYDYWGQGTQVTVSS
testResult: no binding
